Just for reference, patent US8008303B2 is where these values come from.

# Tested on: HCV replicon cells Huh 9B
# Assay type: cell-based
# assayContext: concentration reducing total cell area by 50% relative to DMSO controls; methylene blue, absorbance 620 nm; 72 h incubation
measuredMetric: TD50

CN(C)S(=O)(=O)N1CCN(Cc2ccc(NC(=O)c3ccc(-c4cc(NC(=O)NC5CCCCC5)ccc4Cl)cc3)cc2)CC1: * (* < 50 μM)
CC(=O)Nc1ccc(C)c(-c2ccc(C(=O)Nc3ccc(CN4CCS(=O)(=O)CC4)cc3)cc2)c1: * (* < 50 μM)
CC(C)S(=O)(=O)N1CCN(Cc2ccc(NC(=O)c3ccc(-c4cc(NC(=O)NC5CCCCC5)ccc4Cl)cc3)cc2)CC1: * (* < 50 μM)

* * *

# System: HCV replicon cells Huh 9B
# protocolDetails: HCV replicon assay (luciferase readout)
# Assay type: cell-based
pIC50: −log10 of the molar value.
Catalogue of pIC50 values

Cc1ccc(C(=O)Nc2ccc(N3CCOCC3)cc2)cc1-c1ccc(C(=O)Nc2ccc(Br)c(Cl)c2)cc1 [Example 30]: 5.30 to 6.00
CCCS(=O)(=O)N1CCN(Cc2ccc(NC(=O)c3ccc(-c4cc(C(=O)Nc5ccc(N6CCOCC6)c(F)c5)ccc4Cl)cc3)cc2)CC1 [Example 264]: > 6.00
Cc1ccc(C(=O)NC2CCCCCC2)cc1-c1ccc(C(=O)Nc2ccc(CN3CCS(=O)(=O)CC3)cc2)cc1 [Example 147]: 5.30 to 6.00

Below: the item to evaluate.
Query: Given Cc1ccc(C(=O)Nc2ccc(N3CCOCC3)cc2)cc1-c1ccc(C(=O)Nc2ccc(-c3cc[nH]n3)cc2)cc1 [Example 56] , state its recorded pIC50.
Reply: > 6.00

* * *

Measured IC50 values are reported for all entries that follow.
# System: HCV replicon cells Huh 9B
# protocolDetails: HCV replicon assay (luciferase readout)
# Type: cell-based

Below, each entry is followed by its recorded IC50 result.
Cc1cc(C(=O)Nc2ccc(N3CCOCC3)cc2)ccc1-c1cccc(C(=O)NCc2cccc(Cl)c2)c1 [Example 66]: 1000 to 5000 nM
Cc1ccc(C(=O)Nc2ccc(N3CCOCC3)cc2)cc1-c1ccc(C(=O)Nc2ccc(CC#N)cc2)cc1 [Example 39]: 1000 to 5000 nM
Cc1ccc(C(=O)Nc2ccc(N3CCOCC3)cc2)cc1-c1ccc(C(=O)NCc2ccc(Cl)c(C(F)(F)F)c2)cc1 [Example 42]: < 1000 nM
CCN(CC)CCNC(=O)c1ccc(NC(=O)c2ccc(-c3cc(C(=O)NC4CC4)ccc3C)cc2)cc1 [Example 208]: > 5000 nM

Turning now to a further compound:
Query: Give the measured IC50 of CNC(=O)c1ccc(NC(=O)c2ccc(C)c(-c3ccc(C(=O)Nc4ccc(CN5CCS(=O)(=O)CC5)cc4)cc3)c2)cc1 [Example 141] .
Reply: 1000 to 5000 nM

* * *

# System: HCV replicon cells Huh 9B
# Type: cell-based
# assayContext: concentration reducing total cell area by 50% relative to DMSO controls; methylene blue, absorbance 620 nm; 72 h incubation
measuredMetric: TD50

COc1ccc(S(=O)(=O)Nc2ccc(N3CCOCC3)cc2)cc1-c1ccc(C(=O)Nc2ccc(CN3CCS(=O)(=O)CC3)cc2)cc1: * (* < 50 μM)
Cc1ccc(NC(=O)C2CCCCC2)cc1-c1ccc(C(=O)Nc2ccc(-n3cncn3)cc2)cc1: * (* < 50 μM)
COc1ccc(C(=O)Nc2ccc(N3CCOCC3)cc2)cc1-c1ccc(C(=O)Nc2ccc(CN3CCN(S(=O)(=O)C(C)C)CC3)cc2)cc1: * (* < 50 μM)
Cc1ccc(C(=O)Nc2ccc(N3CCOCC3)cc2)cc1-c1ccc(NC(=O)c2ccccc2O)cc1: * (* < 50 μM)
O=C(Nc1ccc(CN2CCS(=O)(=O)CC2)cc1)c1ccc(-c2cccc(NC(=O)C3CCC3)c2)cc1: * (* < 50 μM)
COc1ccc(S(=O)(=O)Nc2ccc(N3CCOCC3)cc2)cc1-c1ccc(C(=O)Nc2ccc(CN3CCN(S(=O)(=O)N(C)C)CC3)cc2)cc1: * (* < 50 μM)

Query: # get_value(readout= TD50, system= HCV replicon cells Huh 9B) for Cc1ccc(NC(=O)c2ccc(Br)cc2)cc1-c1ccc(C(=O)Nc2ccc(-c3cnco3)cc2)cc1
Reply: ** (** > 50 μM)

Query: Request: TD50, test system HCV replicon cells Huh 9B, entry Cc1ccc(NC(=O)C2CC2)cc1-c1ccc(C(=O)Nc2ccc(CN3CCCC3)cc2)cc1
Reply: * (* < 50 μM)

Query: Requested read-out TD50, target or system HCV replicon cells Huh 9B, entry Cc1ccc(NC(=O)c2ccc(N3CCOCC3)cc2)cc1-c1ccc(C(=O)Nc2ccc(Br)c(Cl)c2)cc1
Reply: ** (** > 50 μM)

Query: Kindly state the measured TD50 obtained for Cc1ccc(-c2noc(C(C)C)n2)cc1-c1ccc(C(=O)Nc2ccc(CN3CCS(=O)(=O)CC3)cc2)cc1 with HCV replicon cells Huh 9B.
Reply: * (* < 50 μM)

Query: Give recorded TD50 with HCV replicon cells Huh 9B for the following compound: Cc1ccc(NC(=O)c2ccc(N3CCOCC3)cc2)cc1-c1ccc(C(=O)NCc2cccc(OC(F)(F)F)c2)cc1
Reply: ** (** > 50 μM)

Query: What measured TD50 is associated with Cc1ccc(NC(=O)C2CCCCC2)cc1-c1ccc(C(=O)Nc2ccc(CO)cc2)cc1 on HCV replicon cells Huh 9B?
Reply: * (* < 50 μM)

Query: Lab note: need TD50 for Cc1ccc(NC(=O)NC2CCCCC2)cc1-c1ccc(C(=O)Nc2ccc(CN3CCS(=O)(=O)CC3)cc2)cc1 on HCV replicon cells Huh 9B, anyone have it?
Reply: * (* < 50 μM)

Query: Please provide the recorded TD50 for Cc1ccc(C(=O)Nc2ccc(N3CCOCC3)cc2)cc1-c1ccc(NC(=O)Cc2cccc(Cl)c2)cc1 , tested on HCV replicon cells Huh 9B.
Reply: ** (** > 50 μM)

* * *

# Tested on: HCV replicon cells Huh 9B
# Assay type: cell-based
# assayContext: concentration reducing total cell area by 50% relative to DMSO controls; methylene blue, absorbance 620 nm; 72 h incubation
measuredMetric: TD50

Cc1ccc(NC(=O)N2CCOCC2)cc1-c1ccc(C(=O)Nc2ccc(CN3CCS(=O)(=O)CC3)cc2)cc1 [Example 152]: ** (** > 50 μM)
Cc1ccc(C(=O)Nc2ccc(N3CCOCC3)cc2)cc1-c1ccc(C(=O)NCc2cccc(CNC(=O)OC(C)(C)C)c2)cc1 [Example 47]: ** (** > 50 μM)
Cc1ccc(NC(=O)C2(C#N)CC2)cc1-c1ccc(C(=O)Nc2ccc(CN3CCS(=O)(=O)CC3)cc2)cc1 [Example 174]: * (* < 50 μM)
Cc1ccc(NC(=O)c2ccc(F)cc2)cc1-c1ccc(C(=O)Nc2ccc(CN3CCS(=O)(=O)CC3)cc2)cc1 [Example 159]: * (* < 50 μM)

* * *

# System: HCV replicon cells Huh 9B
# protocolDetails: HCV replicon assay (luciferase readout)
# Format: cell-based
Attribute: IC50

COc1ccc(NC(=O)c2ccc(-c3cc(C(=O)Nc4ccc(N5CCOCC5)cc4)ccc3C)cc2)cc1OC: 1000 to 5000 nM
Cc1ccc(C(=O)Nc2ccc(N3CCOCC3)cc2)cc1-c1ccc(C(=O)Nc2ccc(CO)cc2)cc1: 1000 to 5000 nM
Cc1ccc(C(=O)NCCc2cnc[nH]2)cc1-c1ccc(C(=O)Nc2ccc(CN3CCS(=O)(=O)CC3)cc2)cc1: 1000 to 5000 nM
Cc1ccc(C(=O)Nc2ccc(N3CCOCC3)cc2)cc1-c1ccc(C(=O)Nc2ccc(CN3CCOCC3)cc2)cc1: 1000 to 5000 nM
O=C(Nc1ccc2[nH]ccc2c1)c1ccc(-c2cccc(C(=O)Nc3ccc(N4CCOCC4)cc3)c2)cc1: 1000 to 5000 nM
COc1cccc(NC(=O)c2ccc(-c3cc(C(=O)Nc4ccc(N5CCOCC5)cc4)ccc3C)cc2)c1: < 1000 nM

// moving on: another record for IC50
Query: Hello, I am looking for reported IC50 with HCV replicon cells Huh 9B for Cc1ccc(C(=O)Nc2ccc(N3CCOCC3)cc2)cc1-c1ccc(C(=O)Nc2cccc(C(F)(F)F)c2)cc1 . Could you help?
Reply: 1000 to 5000 nM

* * *

# Tested on: HCV replicon cells Huh 9B
# protocolDetails: HCV replicon assay (luciferase readout)
# Format: cell-based
pIC50: −log10 of the molar value.
measuredMetric: pIC50

Cc1ccc(C(=O)Nc2ccc(N3CCOCC3)cc2)cc1-c1ccc(C(=O)Nc2ccc(C(=O)N(C)C)cc2)cc1: 5.30 to 6.00
CNS(=O)(=O)Cc1ccc(NC(=O)c2ccc(-c3cc(C(=O)Nc4ccc(N5CCOCC5)cc4)ccc3C)cc2)cc1: 5.30 to 6.00
CC(=O)Nc1cccc(NC(=O)c2ccc(-c3cc(C(=O)Nc4ccc(N5CCOCC5)cc4)ccc3C)cc2)c1 [Example 72]: 5.30 to 6.00
Cc1ccc(C(=O)Nc2ccc(C(=O)N3CCCCC3)cc2)cc1-c1ccc(C(=O)Nc2ccc(CN3CCS(=O)(=O)CC3)cc2)cc1: 5.30 to 6.00
Cc1ccc(C(=O)NCCCN2CCCC2=O)cc1-c1ccc(C(=O)Nc2ccc(CN3CCS(=O)(=O)CC3)cc2)cc1: 5.30 to 6.00
Cc1cc(C(=O)Nc2ccc(N3CCOCC3)cc2)ccc1-c1cccc(C(=O)Nc2ccc(CN3CCS(=O)(=O)CC3)cc2)c1: > 6.00
Cc1ccc(C(=O)Nc2ccc(N3CCOCC3)cc2)cc1-c1ccc(C(=O)Nc2cccc(C(C)O)c2)cc1 (centres unmarked): 5.30 to 6.00
Cc1ccc(C(=O)Nc2ccc(N3CCOCC3)cc2)cc1-c1ccc(C(=O)Nc2ccc3ncsc3c2)cc1: < 5.30
CCCS(=O)(=O)N1CCN(Cc2ccc(NC(=O)c3ccc(-c4cc(C(=O)Nc5ccc(N6CCOCC6)cc5)ccc4OC)cc3)cc2)CC1: > 6.00
Cc1ccc(C(=O)NC2CC2)cc1-c1ccc(C(=O)Nc2ccc(CN3CCS(=O)(=O)CC3)cc2)cc1: 5.30 to 6.00

Query: Need pIC50 of Cc1ccc(C(=O)Nc2ccc(C(=O)N3CCOCC3)cc2)cc1-c1ccc(C(=O)Nc2ccc(CN3CCS(=O)(=O)CC3)cc2)cc1 , thanks.
Reply: 5.30 to 6.00
